Reported activation at 3 µM values for the following compounds.
biological target: KCNQ2/3 potassium ion channel (Homo sapiens, UniProt O43525+O43526); construct: expressed in transfected cells; host or cells: CHO cells (hKCNQ-CHO); assay: KCNQ2/3 potassium ion channel activation assay (whole-cell patch clamp, hKCNQ-CHO cells); assay type: cell-based; settings: test concentration 3 μM, read-out: Enhancment % (current enhancement multiple)

Look over these answered cases.
compound | value-observed
Cc1cc(N2CCCc3cc(S(C)(=O)=O)ccc3C2)cc(C)c1NC(=O)CC(C)(C)C [Compound 015] | > 100%
CCC(C)Oc1ccc2c(c1)CCCN(c1cc(C)c(NC(=O)CC(C)(C)C)c(C)c1)C2 (centres unmarked) [Compound 004] | > 100%
Cc1cc(N2CCCc3cc(OCC(F)(F)F)ccc3C2)cc(C)c1NC(=O)CC(C)(C)C [Compound 007] | > 100%
Cc1cc(N2CCCc3cc(OC(C)C(F)(F)F)ccc3C2)cc(C)c1NC(=O)CC(C)(C)C (centres unmarked) [Compound 008] | > 100%
Cc1cc(N2CCCc3cc(O[C@H](C)C(F)(F)F)ccc3C2)cc(C)c1NC(=O)CC(C)(C)C [Compound 032] | > 100%

Which activation at 3 µM value belongs to Cc1cc(N2CCC3(CC3)c3cc(F)ccc3C2)cc(C)c1NC(=O)CC(C)(C)C [Compound 022] ?
50 to 100%

Which activation at 3 µM value belongs to Cc1c(NC(=O)CC(C)(C)C)ccc(N2CCCc3cc(F)ccc3C2)c1F [Compound 029] ?
50 to 100%

Which activation at 3 µM value belongs to Cc1cc(N2CCCc3cc(OC4CCC4)ccc3C2)cc(C)c1NC(=O)CC(C)(C)C [Compound 010] ?
> 100%

Which activation at 3 µM value belongs to CC[C@H](C)Oc1cc2c(cc1F)CN(c1cc(C)c(NC(=O)CC(C)(C)C)c(C)c1)CCC2 [Compound 040] ?
> 100%

Which activation at 3 µM value belongs to CSc1ccc2c(c1)CCCN(c1cc(C)c(NC(=O)CC(C)(C)C)c(C)c1)C2 [Compound 014] ?
50 to 100%

* * *

biological target: KCNQ2/3 potassium ion channel (Homo sapiens, UniProt O43525+O43526); construct: expressed in transfected cells; host or cells: CHO cells (hKCNQ-CHO); assay: KCNQ2/3 potassium ion channel activation assay (whole-cell patch clamp, hKCNQ-CHO cells); format: cell-based; conditions: test concentration 3 μM, read-out: Enhancment % (current enhancement multiple)
reported-metric: activation at 3 µM

Look over these answered cases.
molecule | activation at 3 µM
Cc1cc(N2CCC(C)(C)c3ccccc3C2)cc(C)c1NC(=O)CC(C)(C)C [Compound 017] | 50 to 100%
Cc1cc(N2CCCc3cc(OCC4(C(F)(F)F)CC4)ccc3C2)cc(C)c1NC(=O)CC(C)(C)C [Compound 054] | > 100%
Cc1cc(N2CCCc3cc(O[C@@H](C)C(F)(F)F)ccc3C2)cc(C)c1NC(=O)CC(C)(C)C [Compound 033] | 50 to 100%
CC1=CCN(c2cc(C)c(NC(=O)CC(C)(C)C)c(C)c2)Cc2ccc(F)cc21 [Compound 028] | 50 to 100%

Which activation at 3 µM value belongs to Cc1cc(N2CCCc3cc(OCCC(F)(F)F)ccc3C2)cc(C)c1NC(=O)CC(C)(C)C [Compound 058] ?
> 100%

Which activation at 3 µM value belongs to Cc1cc(N2CCSc3cc(F)ccc3C2)cc(C)c1NC(=O)CC(C)(C)C [Compound 025] ?
> 100%

Which activation at 3 µM value belongs to Cc1cc(N2CCCc3cc(OCCCC(F)(F)C(F)(F)F)ccc3C2)cc(C)c1NC(=O)CC(C)(C)C [Compound 061] ?
> 100%

Which activation at 3 µM value belongs to Cc1cc(N2CCCc3cc(OC(C)C(F)(F)F)c(F)cc3C2)cc(C)c1NC(=O)CC(C)(C)C (centres unmarked) [Compound 034] ?
> 100%

Which activation at 3 µM value belongs to Cc1cc(N2CCCc3cc(OC4CC4)ccc3C2)cc(C)c1NC(=O)CC(C)(C)C [Compound 009] ?
> 100%
